Tested on: HIPK2
study-conditions: concentration: 1 μM, replicates: in singlicate; n = 1;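 further: KINOMEscan kinase panel screen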
quantity-name: %Inh (%)
Give your result in % as a bare value.

Take a look at these entries with their results.
| compound | display-unit | %Inh |
| --- | --- | --- |
| CN(c1ccc2c(c1)nc(NCc1ccccc1)n2C)c1ccnc(Nc2ccc(CS(C)(=O)=O)cc2)n1.Cl | % | 46 |
| CN(C)CCOc1ccc(-c2cc(-c3ccc(Cl)c(O)c3)c(-c3ccncc3)[nH]2)cc1.Cl.Cl | % | 0 |
| O=C(Nc1n[nH]c2cc(-c3cccs3)ccc12)C1CC1 | % | 4 |
| NCCC(NC(=O)c1cc(Br)c(-c2ccnc3[nH]ccc23)s1)c1ccccc1.O=C(O)C(F)(F)F.O=C(O)C(F)(F)F (centres unmarked) | % | 9 |
| COc1cccc(CC(=O)N2CCc3cc(-c4cn(C)c5ncnc(N)c45)ccc32)c1 | % | 0 |

Complete the entry with %Inh for Cc1ccc(-c2ccc3occ(-c4ccc(S(C)=O)cc4)c3c2)nn1 (centres unmarked)
2

Complete the entry with %Inh for Nc1ncc(-c2cn[nH]c2)c2scc(-c3ccc4c(c3)CCN4C(=O)Cc3ccccc3)c12
1

Complete the entry with %Inh for Nc1cccc(-c2ccc3c(N)n[nH]c3c2)c1
0

Complete the entry with %Inh for Cc1cc(-c2ccnc(Nc3cccc(C#N)c3)n2)cc(C)c1O
98.9

Complete the entry with %Inh for Fc1cc(Cl)ccc1Nc1ccnc2cc(-c3ccc(CN4CCSCC4)o3)ccc12
0

Complete the entry with %Inh for CC(C)c1nc(-c2cccc(NS(=O)(=O)c3c(F)cccc3F)c2)c(-c2ccnc(Nc3ccc(N4CCOCC4)nc3)n2)s1.Cl
57

Complete the entry with %Inh for Cc1ccc(NC(=O)c2ccc(Cl)c(Cl)c2)cc1-c1ccc(C(=O)Nc2ccncc2)cc1
0

Complete the entry with %Inh for Nc1ncc(-c2ccc3nccc(-c4ccncc4)c3c2)cc1S(=O)(=O)N1CCCCC1
0

====

Each entry below lists one item and its recorded %Inh value.
Tested on: PYK2
Construct: gene PTK2B
study-conditions: concentration: 1 μM, replicates: in singlicate; n = 1
Give your result in % as a bare value.

| molecule | %Inh, % |
| --- | --- |
| CN(c1ccc(NC(=O)N2CCN(CCCN3CCOCC3)CC2)cc1)c1ccnc(Nc2ccc(CS(C)(=O)=O)cc2)n1.Cl [GW830899] | 16 |
| COc1cc(Nc2nccc(N3CCC(NC(=O)Nc4ccc5c(c4)OCO5)C3)n2)cc(OC)c1OC (stereo not shown) [GSK1379766] | 15 |
| c1ccc(Oc2ccc(Nc3ccnc4cc(-c5ccc(CN6CCCCC6)o5)ccc34)cc2)nc1 [GW567143] | 0 |
| Cc1nn2c(=O)cc(N3CCO[C@H](C)C3)nc2n1Cc1cccc(Cl)c1Cl [GSK2373693] | 0 |
| Cc1cccc(Nc2nc(N[C@H]3CCCC[C@H]3N)ncc2C(N)=O)c1.Cl [GSK986310] | 71 |
| CCn1c(-c2nonc2N)nc2c(-c3ccccc3)ncc(OCCCN)c21.O=C(O)C(F)(F)F.O=C(O)C(F)(F)F [GSK260205] | 6 |

For the next question, use this molecule.
Complete the entry with %Inh for Cl.O=C(Nc1ccc(Oc2ccc3[nH]c(NC(=O)c4ccco4)nc3c2)cc1)Nc1cc(C(F)(F)F)ccc1F [GW683134]
10

====

Test system: DAPK1
study-conditions: concentration: 1 μM, replicates: in singlicate; n = 1
Lab note - cut at 10% for %Inh: Fulfilled if strictly below, Not fulfilled if not.

Determine whether this molecule shows %Inh lower than 10% (ties excluded): CC(C)c1nc(-c2ccc(F)c(NS(=O)(=O)c3c(F)cccc3F)c2)c(-c2ccnc(Nc3ccc(N4CCOCC4)nc3)n2)s1 [GSK1804250]
Not fulfilled

Determine whether this molecule shows %Inh lower than 10% (ties excluded): N#Cc1cnc2cc(-c3cnc(CNCCN4CCOCC4)s3)ccc2c1Nc1ccc(Oc2ccccc2)cc1 [GW664114]
Not fulfilled

Determine whether this molecule shows %Inh lower than 10% (ties excluded): Cc1cccc(Nc2nc(NCCN)ncc2C(N)=O)c1 [GSK1292139]
Not fulfilled

====

Each entry below lists one item and its recorded %Inh value.
System: DDR2
study-conditions: concentration: 1 μM, replicates: in singlicate; n = 1
Give your result in % as a bare value.

Take a look at these entries with their results.
| chemical-smiles | target-or-test-system | quantity-name | display-unit | recorded-value |
| --- | --- | --- | --- | --- |
| CN(c1ccc(NC(=O)N2CCN(CCCN3CCOCC3)CC2)cc1)c1ccnc(Nc2ccc(CS(C)(=O)=O)cc2)n1.Cl | DDR2 | %Inh | % | 54 |
| COc1cccc2c(-c3ccncc3)c(-c3ccc(F)cc3)nn12 | DDR2 | %Inh | % | 90 |

Complete the entry with %Inh for Cc1ccc(NC(=O)c2ccc(Cl)c(Cl)c2)cc1-c1ccc(C(=O)Nc2ccncc2)cc1
69

Complete the entry with %Inh for CC(C)c1nc(-c2cccc(NS(=O)(=O)c3c(F)cccc3F)c2)c(-c2ccnc(Nc3ccc(N4CCOCC4)nc3)n2)s1.Cl
42

Complete the entry with %Inh for Cc1cccc(Nc2nc(N[C@H]3CCCC[C@H]3N)ncc2C(N)=O)c1.Cl
0

Complete the entry with %Inh for Fc1cc(Cl)ccc1Nc1ccnc2cc(-c3ccc(CN4CCSCC4)o3)ccc12
69

Complete the entry with %Inh for O=C(O)C(F)(F)F.O=c1[nH]ccc2nc(N[C@@H]3CCNC3)nc(Nc3cc(Cl)cc(Cl)c3)c12
18

Complete the entry with %Inh for Cc1ccc(NC(=O)c2ccnc(N3CCCCC3)c2)cc1-c1ccc(C(=O)NCC2CC2)cc1
93.6

====

System: RSK3(Kin.Dom.1-N-terminal)
Construct: gene RPS6KA2
study-conditions: concentration: 1 μM, replicates: in singlicate; n = 1
Each entry below lists one item and its recorded %Inh value.
Give your result in % as a bare value.

| compound | %Inh (%) |
| --- | --- |
| CCn1cnc2c(NCc3ccccc3)ncnc21 [SKF-96418] | 0 |
| O=C(O)C(F)(F)F.O=c1[nH]ccc2nc(N[C@@H]3CCNC3)nc(Nc3cc(Cl)cc(Cl)c3)c12 [GSK2188764] | 94.8 |
| CN(C)CCOc1ccc(-c2cc(-c3ccc(Cl)c(O)c3)c(-c3ccncc3)[nH]2)cc1.Cl.Cl [SB-684387] | 4 |
| CN(c1ccc(NC(=O)Nc2cccc(Cl)c2)cc1)c1ccnc(N)n1.Cl [GW830707] | 0 |
| COc1cccc2c(-c3ccncc3)c(-c3ccc(F)cc3)nn12 [GW468513] | 3 |

Complete the entry with %Inh for Fc1cc(Cl)ccc1Nc1ccnc2cc(-c3ccc(CN4CCOCC4)o3)ccc12 [GW560109]
100

Complete the entry with %Inh for Cn1cc(-c2cnc(N)c3c(-c4ccc5c(c4)CCN5C(=O)Cc4ccccc4)csc23)cn1 [GSK2593074]
0

Complete the entry with %Inh for CC(=O)Nc1cn2nc(Oc3cccc(NC(=O)c4cccc(C(F)(F)F)c4)c3)ccc2n1
0

====

Each entry below lists one item and its recorded %Inh value.
Tested on: CLK2
study-conditions: concentration: 1 μM, replicates: in singlicate; n = 1
Give your result in % as a bare value.

Complete the entry with %Inh for COC(=O)Nc1nc2cc(Oc3ccc(NC(=O)Nc4cccc(SC)c4)cc3)ccc2[nH]1.Cl
32

Complete the entry with %Inh for COC(=O)Nc1nc2ccc(Oc3ccc(CC(=O)Nc4cc(C(F)(F)F)ccc4F)cc3)cc2[nH]1
0

Complete the entry with %Inh for COc1cccc2c(-c3ccncc3)c(-c3ccc(F)cc3)nn12
0

====

Each entry below lists one item and its recorded %Inh value.
Test system: PLK4
study-conditions: concentration: 1 μM, replicates: in singlicate; n = 1
Give your result in % as a bare value.

Take a look at these entries with their results.
| compound | target-or-test-system | quantity-name | display-unit | recorded-value |
| --- | --- | --- | --- | --- |
| Nc1ncc(-c2ccc3nccc(-c4ccncc4)c3c2)cc1S(=O)(=O)N1CCCCC1 | PLK4 | %Inh | % | 0 |
| CCn1cnc2c(NCc3ccccc3)ncnc21 | PLK4 | %Inh | % | 1 |
| Cc1cc(-c2ccnc(Nc3cccc(C#N)c3)n2)cc(C)c1O | PLK4 | %Inh | % | 15 |
| N#Cc1cnc2cc(-c3cnc(CNCCN4CCOCC4)s3)ccc2c1Nc1ccc(Oc2ccccc2)cc1 | PLK4 | %Inh | % | 2 |
| CN(C)CCNS(=O)(=O)c1ccc(-c2ccnc3[nH]ccc23)cc1 | PLK4 | %Inh | % | 1 |

Complete the entry with %Inh for O=C(Nc1n[nH]c2nc(-c3ccccc3)ccc12)C1CC1
17

Complete the entry with %Inh for COc1cc(Nc2nccc(N3CCC(NC(=O)Nc4ccc5c(c4)OCO5)C3)n2)cc(OC)c1OC (stereo not drawn)
48

Complete the entry with %Inh for Nc1cccc(-c2ccc3c(N)n[nH]c3c2)c1
4

Complete the entry with %Inh for COc1cccc(C2=C(Nc3cccc(O)c3)C(=O)NC2=O)c1
15
